# credit: patent US9487483B2

tgt: Recombinant human factor D (Homo sapiens (Human), UniProt P00746)
Sequence (P00746 26-253): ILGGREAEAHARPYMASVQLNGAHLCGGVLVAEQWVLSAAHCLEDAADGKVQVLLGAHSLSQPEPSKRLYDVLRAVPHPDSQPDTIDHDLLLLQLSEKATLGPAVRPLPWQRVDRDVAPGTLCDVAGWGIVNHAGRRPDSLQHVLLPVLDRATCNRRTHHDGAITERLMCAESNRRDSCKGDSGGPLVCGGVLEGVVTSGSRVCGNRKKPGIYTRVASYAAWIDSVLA
experimentDescription: biochemical
Assay type: biochemical
conditionSet: Factor D inhibition data using Method 1; substrate Z-Lys-thiobenzyl, fluorescence readout; read-out: IC50
quantityMeasured: log10(IC50) (log10 of the value in nM)
A value of 2 here means IC50 of 100 in nM, since values are log10.

Worked examples, 3 compounds total:
[[record]]
compound = "NC(=O)n1cc(NC(=O)N2[C@@H]3C[C@@H]3C[C@H]2C(=O)NC2CCCCC2)c2ccccc21 [Example 15]"
tgt = "Recombinant human factor D (Homo sapiens (Human), UniProt P00746)"
quantitymeasured = "log10(IC50)"
recordedvalue = 3.25

[[record]]
compound = "CC(=O)c1nn(CC(=O)N2[C@@H]3C[C@@H]3C[C@H]2C(=O)NC2CC(C)(C)C2)c2ccc(OCc3ncccn3)cc12 [Example 103]"
tgt = "Recombinant human factor D (Homo sapiens (Human), UniProt P00746)"
quantitymeasured = "log10(IC50)"
recordedvalue = 1.56

[[record]]
compound = "CO[C@H]1CCC[C@@H](NC(=O)[C@@H]2C[C@H]3C[C@H]3N2C(=O)Cn2nc(C(C)=O)c3cc(OCc4ncccn4)ccc32)C1 [Example 94]"
tgt = "Recombinant human factor D (Homo sapiens (Human), UniProt P00746)"
quantitymeasured = "log10(IC50)"
recordedvalue = 2.14


Field: next compound
State the recorded log10(IC50) for this entry: C[C@]1(CO)CCC[C@@H](NC(=O)[C@@H]2C[C@H]3C[C@H]3N2C(=O)Cn2nc(C(N)=O)c3ccccc32)C1 [Example 127]
1.90

###

Recorded measurements of IC50, one per entry
tgt: Recombinant human factor D (Homo sapiens (Human), UniProt P00746)
experimentDescription: biochemical
Type: biochemical
conditionSet: read-out: IC50
// return the numeric value with its unit appended

Worked examples, 5 molecules total:
[[record]]
molecule = "NC(=O)c1nn(CC(=O)N2[C@@H]3C[C@@H]3C[C@H]2C(=O)NC2CCCC(OC(F)(F)F)C2)c2ccccc12 (some centres unmarked) [Example 33]"
quantitymeasured = "IC50"
recordedvalue = "121 nM"

[[record]]
molecule = "CC1=CC(NC(=O)[C@@H]2C[C@H]3C[C@H]3N2C(=O)Cn2nc(C(N)=O)c3ccccc32)CCC1 (some centres unmarked) [Example 74]"
quantitymeasured = "IC50"
recordedvalue = "132 nM"

[[record]]
molecule = "NC(=O)c1nn(CC(=O)N2[C@@H]3C[C@@H]3C[C@H]2C(=O)N[C@@H]2CCC[C@H](C(F)(F)F)C2)c2cnccc12 [Example 41]"
quantitymeasured = "IC50"
recordedvalue = "114 nM"

[[record]]
molecule = "C[C@H]1CCC[C@@H](NC(=O)[C@@H]2C[C@H]3C[C@H]3N2C(=O)Cn2nc(C(N)=O)c3ccccc32)C1 [Example 47]"
quantitymeasured = "IC50"
recordedvalue = "91 nM"

[[record]]
molecule = "CO[C@H]1C[C@H](NC(=O)[C@@H]2C[C@H]3C[C@H]3N2C(=O)Cn2nc(C(N)=O)c3ccccc32)CC(C)(C)C1 [Example 106]"
quantitymeasured = "IC50"
recordedvalue = "18 nM"


State the recorded IC50 for this entry: C[C@@H]1CCC[C@H](NC(=O)[C@@H]2C[C@H]3C[C@H]3N2C(=O)Cn2nc(C(N)=O)c3ccccc32)C1 [Example 48]
1320 nM

Same question, CC(=O)c1nn(CC(=O)N2[C@@H]3C[C@@H]3C[C@H]2C(=O)N[C@H]2CCCC(C)(C)C2)c2ccc(OCc3ncccn3)cc12 [Example 97] this time
341 nM

Same question, CC1(C)CCC[C@H](NC(=O)[C@@H]2C[C@@H](F)CN2C(=O)Cn2nc(C(N)=O)c3ccncc32)C1 [Example 70] this time
2090 nM

###

Recorded measurements of IC50, one per entry
tgt: Recombinant human factor D (Homo sapiens (Human))
experimentDescription: biochemical
Format: biochemical
conditionSet: Factor D inhibition data using Method 1; substrate Z-Lys-thiobenzyl, fluorescence readout; read-out: IC50
Give the quantity in nM, number only.

Worked examples, 4 compounds total:
[[record]]
compound = "CCc1cc2c(C(N)=O)nn(CC(=O)N3[C@@H]4C[C@@H]4C[C@H]3C(=O)N[C@@H]3CCCC(C)(C)C3)c2cn1 [Example 64]"
readoutunit = "nM"
recordedvalue = 24

[[record]]
compound = "CC(=O)c1nn(CC(=O)N2[C@H](C(=O)N[C@@H]3CCCC(C)(C)C3)C[C@@]3(CO)C[C@@H]23)c2ncccc12 [Example 115]"
readoutunit = "nM"
recordedvalue = 22

[[record]]
compound = "CC[C@@H]1CCC[C@H](NC(=O)[C@@H]2C[C@H]3C[C@H]3N2C(=O)Nc2cn(C(N)=O)c3ccccc23)C1 [Example 24]"
readoutunit = "nM"
recordedvalue = 401

[[record]]
compound = "CC(=O)c1nn(CC(=O)N2[C@@H]3C[C@@H]3C[C@H]2C(=O)N[C@@H]2CCC[C@H](C)C2)c2ccc(OCc3ncccn3)cc12 [Example 96]"
readoutunit = "nM"
recordedvalue = 90


Field: next compound
State the recorded IC50 for this entry: CC(=O)c1nn(CC(=O)N2[C@@H]3C[C@@H]3C[C@H]2C(=O)NC2CC2(F)F)c2ncccc12 (some centres unmarked) [Example 3]
4790

###

tgt: Recombinant human factor D (Homo sapiens (Human))
experimentDescription: biochemical
Format: biochemical
conditionSet: Factor D inhibition data using Method 1; substrate Z-Lys-thiobenzyl, fluorescence readout; read-out: IC50
Threshold-based label: IC50 under 0.05 µM gives class 1, IC50 not under 0.05 µM gives class 0.

[[record]]
compound = "NC(=O)c1nn(CC(=O)N2[C@@H]3C[C@@H]3C[C@H]2C(=O)NC2CCCC(O)(C(F)(F)F)C2)c2ccccc12 (stereo partly drawn)"
tgt = "Recombinant human factor D (Homo sapiens (Human))"
label = "class 0"


# TODO verify IC50 < 0.05 µM strictly for this compound: CC1(C)CCC[C@@H](NC(=O)[C@@H]2C[C@@H](F)CN2C(=O)Cn2nc(C(N)=O)c3ccccc32)C1
class 1

Same question, NC(=O)c1nn(CC(=O)N2[C@@H]3C[C@@H]3C[C@H]2C(=O)NC2CCCC(O)(C(F)(F)F)C2)c2cnccc12 (stereo partly drawn) this time
class 0

Same question, CC(=O)c1nn(CC(=O)N2[C@@H]3C[C@@H]3C[C@H]2C(=O)NC2CC2(C)C)c2ncccc12 (stereo partly drawn) this time
class 0

Same question, NC(=O)n1cc(NC(=O)N2[C@@H]3C[C@@H]3C[C@H]2C(=O)N[C@@H]2CCC[C@H](C(F)(F)F)C2)c2ccccc21 this time
class 1

Same question, CC(=O)c1cn(CC(=O)N2[C@@H]3C[C@@H]3C[C@H]2C(=O)N[C@@H]2CCCC(C)(C)C2)c2nnccc12 this time
class 0

Same question, CC1(C)CCC[C@@H](NC(=O)[C@@H]2C[C@H]3C[C@H]3N2C(=O)Cn2nc(C(N)=O)c3ccc(Cl)cc32)C1 this time
class 1

###

tgt: Recombinant human factor D (Homo sapiens (Human))
experimentDescription: biochemical
Type: biochemical
conditionSet: read-out: IC50
Recorded measurements of IC50, one per entry
Give the quantity in µM, number only.

[[record]]
molecule = "CCc1cc2c(C(N)=O)nn(CC(=O)N3C[C@H](F)C[C@H]3C(=O)N[C@@H]3CCCC(C)(C)C3)c2cn1 [Example 81]"
quantitymeasured = "IC50"
recordedvalue = 0.039

[[record]]
molecule = "CO[C@H]1CCC[C@H](NC(=O)[C@@H]2C[C@H]3C[C@H]3N2C(=O)Cn2nc(C(C)=O)c3ccccc32)C1 [Example 42]"
quantitymeasured = "IC50"
recordedvalue = 1.07

[[record]]
molecule = "CC(=O)c1nn(CC(=O)N2[C@@H]3C[C@@H]3C[C@H]2C(=O)N[C@@H]2C[C@@H](O)CC(C)(C)C2)c2ccccc12 [Example 125]"
quantitymeasured = "IC50"
recordedvalue = 1.1


State the recorded IC50 for this entry: CC(=O)c1nn(CC(=O)N2[C@@H]3C[C@@H]3C[C@H]2C(=O)N[C@@H]2CC[C@@H](C(N)=O)C2)c2ncccc12 [Example 12]
12.7

Same question, CC(=O)c1nn(CC(=O)N2[C@@H]3C[C@@H]3C[C@H]2C(=O)NC2CC(F)(F)C2)c2ccc(OCc3ncccn3)cc12 [Example 104] this time
0.273

Same question, COC1(C)CCCC(NC(=O)[C@@H]2C[C@H]3C[C@H]3N2C(=O)Cn2nc(C(N)=O)c3ccccc32)C1 (mixture of isomers) [Example 126] this time
0.2
